# experimental-details: soluble on expression in E. coli; label from the status in PepcDB or PDB records

{"columns": ["biopolymer-sequence", "soluble on expression in E. coli"],
 "data": [
  ["MDANEKKEVIKKRFQEIAMSGGTCCSGGGCCGDSSSSDISRAIGYSEADIEAVPDANMGLGCGNPASIAELKPGDIVLDLGSGAGFDCFLAAQKVGNSGKVIGVDMTPEMVEKVQANARKYGYSNVEFRQGDIEALPVEDSSVDVIISNCVINLAPDKEKVFREAFRVLKLGGRLYISDLVLLDELPEDLKNDRDLLAGCVAGAVLKEEYLKLLKRAGFSVEILAEDPDISKSQYKGLPVESLKLKAWVLEHHHHHH", "soluble"],
  ["MKISSIDSIFAAWDGSITEARRLQSDMAERIVLKDEPNLLSEPTLLAGFDVGFEDEGRTTRAAAVLMNAGDLRLLETHVVRVPTSMPYVPGLLSFRELPALLQALTQLSRIPALVFVDGHGIAHPRRLGIAAHFGLVTNLPCIGVAKKRLVGDFVEPGTAFGEHTPILLHGTQVGWALRSKMHCKPLIISPGHKVSLHSALTWTQRCLTGYRLPEPTRQADRLASRRGQKIVSDLPSLLLEHHHHHH", "soluble"]
]}
